Reported Signal value, Clec10a-Fc with EDTA values for the following molecules.
target: Clec10a-Fc (Mus musculus); construct: cloning the extracellular region of mouse Clec10a into a pME18S expression vector; made in house; host or cells: HEK293T cells; experiment: Sugar conjugate (glycan) microarray analysis of Clec10a-Fc (Table 7); assay type: binding; settings: glycan microarray probed with Clec10a-Fc with EDTA
Sequence (P49300 57-304 limits assumed): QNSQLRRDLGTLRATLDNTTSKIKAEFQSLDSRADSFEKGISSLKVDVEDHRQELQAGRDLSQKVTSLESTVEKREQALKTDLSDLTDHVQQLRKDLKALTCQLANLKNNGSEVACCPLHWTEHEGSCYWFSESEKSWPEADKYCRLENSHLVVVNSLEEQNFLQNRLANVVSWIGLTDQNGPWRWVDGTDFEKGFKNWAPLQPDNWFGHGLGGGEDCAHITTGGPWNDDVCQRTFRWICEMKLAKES
parameter_measured: Signal value, Clec10a-Fc with EDTA

[[record]]
compound = "OC[C@H]1O[C@@H](O)[C@H](O)[C@@H](O)[C@H]1O"
observed = 0

[[record]]
compound = "CC(=O)N[C@@H]1[C@@H](O[C@@H]2O[C@H](CO)[C@@H](O)[C@H](O)[C@H]2NC(C)=O)[C@@H](O)[C@@H](CO)O[C@@H]1O"
observed = 0

[[record]]
compound = "CC(=O)N[C@@H]1[C@@H](O)[C@H](O[C@@H]2O[C@H](CO)[C@H](O)[C@H](O[C@H]3O[C@H](CO)[C@H](O)[C@H](O)[C@H]3NC(C)=O)[C@H]2O[C@@H]2O[C@@H](C)[C@@H](O)[C@@H](O)[C@@H]2O)[C@@H](CO)O[C@H]1O"
observed = 0

